In this section we review reported pEC50 values for a set of substances.
assayed system: hGcgR (Homo sapiens)
Sequence (P47871 26-477): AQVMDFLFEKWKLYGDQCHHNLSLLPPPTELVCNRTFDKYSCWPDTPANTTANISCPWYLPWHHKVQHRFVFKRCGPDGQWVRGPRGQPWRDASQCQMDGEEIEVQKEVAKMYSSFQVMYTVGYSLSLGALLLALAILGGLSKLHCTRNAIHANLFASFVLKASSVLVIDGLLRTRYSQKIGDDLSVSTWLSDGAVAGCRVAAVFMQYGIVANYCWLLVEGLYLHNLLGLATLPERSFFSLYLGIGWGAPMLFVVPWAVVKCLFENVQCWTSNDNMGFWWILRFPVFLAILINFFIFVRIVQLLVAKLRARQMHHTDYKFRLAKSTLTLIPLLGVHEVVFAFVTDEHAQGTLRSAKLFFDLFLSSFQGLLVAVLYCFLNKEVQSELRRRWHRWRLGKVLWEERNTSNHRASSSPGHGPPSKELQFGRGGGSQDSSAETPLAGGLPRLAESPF
experiment description: Functional cAMP activation in the presence of 0.1% casein (no HSA);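 further: intracellular cAMP rise after 30 min at 37 °C, read by HTRF against a cAMP standard curve, scaled from buffer only (0%) to maximal control ligand response (100%)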
Assay type: cell-based
Starred links: 1 amine or outer side, 2 acyl side, 3 side chain; linkers in the order of their positions; H or OH if unused. Non-standard residues stand in square brackets, D forms with d. Groups on a side chain read outwards from the residue. No end group written: not given here. *: point of attachment. C20 diacid = O=C(O)CCCCCCCCCCCCCCCCCCC(=O)*; C18 diacid = O=C(O)CCCCCCCCCCCCCCCCC(=O)*; αMePhe(2-F) = C[C@](N)(Cc1ccccc1F)C(=O)O; γGlu = O=C(O)[C@H](CCC(=O)[*:2])N[*:1]; αMe4Pal = C[C@](N)(Cc1ccncc1)C(=O)O; αMeY = C[C@](N)(Cc1ccc(O)cc1)C(=O)O; 4Pal = N[C@@H](Cc1ccncc1)C(=O)O; αMeL = CC(C)C[C@](C)(N)C(=O)O; αMeS = C[C@](N)(CO)C(=O)O; Orn = NCCC[C@H](N)C(=O)O; AEEA = NCCOCCOCC(=O)O; Aib = CC(C)(N)C(=O)O
Please express pEC50 as -log10 of the molar concentration.

# substance, data value
data = [
    ("H-Y[Aib]QGTFTSD[4Pal]S[Orn][αMeL]LD[Orn]K([γGlu-γGlu-C18 diacid])AQ[αMe4Pal]QFIE[αMeY]LLEGGPSSGAPPPSGSEE-NH2 [Example 975]", 8.58),
    ("H-Y[Aib]QGTFTSDFS[Orn][αMeL]LDKK([AEEA-AEEA-γGlu-C20 diacid])AQ[Aib]AFIEYLLE[Aib]GPSSGAPPPGEG-NH2 [Example 70]", 8.22),
    ("H-Y[Aib]QGTFTSDFSR[αMeL]LDKK([AEEA-γGlu-C18 diacid])AQ[αMe4Pal]AFIEYLIE[Aib]GESSGAPPPSGE-NH2 [Example 231]", 8.67),
    ("H-Y[Aib]QGT[αMePhe(2-F)]TSD[4Pal][αMeS]I[αMeL]LD[Orn]K([γGlu-γGlu-C18 diacid])AQ[αMe4Pal]EFI[dE][αMeY]LIEGGPSSGAPPPEGTGE-NH2 [Example 764]", 8.79),
]

Turning now to a further record.
Q. If you can, please state the reported pEC50 value of Y[Aib]QGTFTSDFSQ[αMeL]LDKK([AEEA-γGlu-C18 diacid])AQ[αMe4Pal]AFIEYLIE[Aib]GESSGAPPPSGS-NH2 [Example 232] .
A. 8.62
